TEST SYSTEM: E. coli CsgA (Escherichia coli, UniProt P28307)
Construct: made in house; host or cells: E. coli NEB 3016 slyD::kan, pET11d
Sequence (P28307 23-151): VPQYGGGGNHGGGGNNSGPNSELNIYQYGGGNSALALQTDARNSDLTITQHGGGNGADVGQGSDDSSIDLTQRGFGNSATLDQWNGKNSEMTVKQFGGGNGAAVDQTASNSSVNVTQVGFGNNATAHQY
ASSAY TEXT: In vitro ThioflavinT assay of CsgA aggregation (CsgA ThT Assay)
Type: biochemical
STUDY CONDITIONS: read-out: CsgA ThT Assay (10 μM CsgA) % Control AUC at 1005 minutes, 100 μM, mean AUC as % of DMSO control; CsgA 10 μM, black plates; compound 100 μM; 1005 minutes
READOUT LABEL: remaining activity at 100 µM (%)

COMPOUND	READOUT LABEL	RECORDED VALUE
Nc1c(Cc2cccc3ccccc23)c(-c2cccc(C(F)(F)F)c2)c2n(c1=O)C(C(=O)O)CN(C[C@H](O)[C@@H](O)[C@H](O)[C@H](O)CO)S2(=O)=O (stereo partly shown)	remaining activity at 100 µM	70
Nc1c(Cc2cccc3ccccc23)c(-c2cccc(C(F)(F)F)c2)c2n(c1=O)C(C(=O)O)CS2 (racemic) [Compound 020]	remaining activity at 100 µM	7
O=C(O)CC1CSc2c(-c3cccc(C(F)(F)F)c3)c(Cc3cccc4ccccc34)cc(=O)n21 (stereo not shown)	remaining activity at 100 µM	61
CCN1CC(C(=O)O)n2c(c(-c3cccc(C(F)(F)F)c3)c(Cc3cccc4ccccc34)c(N)c2=O)S1(=O)=O (stereo not shown)	remaining activity at 100 µM	52

---

TEST SYSTEM: E. coli CsgA (Escherichia coli, UniProt P28307)
Construct: made in house; host or cells: E. coli NEB 3016 slyD::kan, pET11d
ASSAY TEXT: In vitro ThioflavinT assay of CsgA aggregation (CsgA ThT Assay)
Format: biochemical
STUDY CONDITIONS: read-out: CsgA ThT Assay (10 μM CsgA) % Control AUC at 1005 minutes, 25 μM, mean AUC as % of DMSO control; CsgA 10 μM, black plates; compound 25 μM; 1005 minutes
Mark T for remaining activity at 25 µM under 80%, F if at or over.

COMPOUND	DISCRETE LABEL
O=C(O)C1CN(C[C@@H](O)CO)S(=O)(=O)c2c(-c3cccc(C(F)(F)F)c3)c(Cc3cccc4ccccc34)cc(=O)n21 (mixture of isomers) [Compound 065b]	T
O=C(O)C1CSc2c(-c3cccc(C(F)(F)F)c3)c(C(F)(F)c3cccc4ccccc34)nc(=O)n21 (stereo not drawn)	T
CN1CC(C(=O)O)n2c(c(-c3cccc(C(F)(F)F)c3)c(Cc3cccc4ccccc34)c(NC3CCNCC3)c2=O)S1(=O)=O (stereo not drawn)	F
NC(=O)CN1CC(C(=O)O)n2c(c(-c3cccc(C(F)(F)F)c3)c(Cc3cccc4ccccc34)cc2=O)S1(=O)=O (stereo not drawn)	T
C/C=C/c1c(Cc2cccc3ccccc23)c(-c2cccc(C(F)(F)F)c2)c2n(c1=O)C(C(=O)O)CN(C)S2(=O)=O (stereo not drawn)	T
CN(C)Cc1c(Cc2cccc3ccccc23)c(-c2cccc(C(F)(F)F)c2)c2n(c1=O)C(C(=O)O)CS2 (stereo not drawn)	F
CCCN1CC(C(=O)O)n2c(c(-c3cccc(C(F)(F)F)c3)c(Cc3cccc4ccccc34)cc2=O)S1(=O)=O (racemic) [Compound 016]	T
Cn1c(=O)c2c(ncn2CCCCCCN2CC(C(=O)O)n3c(c(-c4cccc(C(F)(F)F)c4)c(Cc4cccc5ccccc45)cc3=O)S2(=O)=O)n(C)c1=O (stereo not drawn)	T

---

TEST SYSTEM: E. coli CsgA (Escherichia coli)
Construct: made in house; host or cells: E. coli NEB 3016 slyD::kan, pET11d
ASSAY TEXT: In vitro ThioflavinT assay of CsgA aggregation (CsgA ThT Assay)
Format: biochemical
STUDY CONDITIONS: read-out: CsgA ThT Assay (2 μM CsgA) % Control Bmax 100 μM, activity range, class symbol; CsgA 2 μM, white plates; compound 100 μM
Experimental: In vitro ThioflavinT assay to determine effects of compounds on CsgA aggregation. […] Protein concentration was assessed by the NanoDrop technique (Thermo Scientific), as is familiar to one skilled in the art. […] During the assay, plates were shaken initially for 5 seconds and subsequently for 3 seconds prior to fluorescent readings. Readings were performed every 15 minutes for up to 1005 minutes. The effect of compounds on CsgA aggregation in the assay was determined with data from 0-17 hours. […]
List of remaining activity at 100 µM values.

COMPOUND	remaining activity at 100 µM
CC(C)CNC(=O)c1c(Cc2cccc3ccccc23)c(-c2cccc(C(F)(F)F)c2)c2n(c1=O)C(C(=O)O)CN(C)S2(=O)=O (stereo not drawn) [Compound 159]	> 60%
CC(C)(C)c1cccc(Cc2c(-c3cccc(C(F)(F)F)c3)c3n(c(=O)c2Cl)C(C(=O)O)CN3Cc2ccccc2)c1 (stereo not drawn) [Compound 215]	> 60%
CN(C)C(=O)c1c(Cc2cccc3ccccc23)c(-c2cccc(C(F)(F)F)c2)c2n(c1=O)C(C(=O)O)CN(C)S2(=O)=O (stereo not drawn) [Compound 173]	31 to 60%

---

TEST SYSTEM: E. coli CsgA (Escherichia coli)
Construct: made in house; host or cells: E. coli NEB 3016 slyD::kan, pET11d
ASSAY TEXT: In vitro ThioflavinT assay of CsgA aggregation (CsgA ThT Assay)
Type: biochemical
STUDY CONDITIONS: read-out: CsgA ThT Assay (2 μM CsgA) % Control Bmax 25 μM, mean Bmax as percentage of DMSO control; CsgA 2 μM, white plates; compound 25 μM

MOLECULE	UNIT NAME	remaining activity at 25 µM
O=C(O)[C@H]1CN(Cc2ccccc2)c2c(-c3cccc(C(F)(F)F)c3)c(Cc3cccc4ccccc34)c(Br)c(=O)n21 (single isomer, unassigned) [Compound 190]	%	63
O=C(O)C1CN(Cc2ccccc2)c2c(-c3cccc(C(F)(F)F)c3)c(Cc3cccc4ccccc34)c(Br)c(=O)n21 (stereo not drawn) [Compound 003]	%	54
O=C(O)C1CN(CCCO)c2c(-c3cccc(C(F)(F)F)c3)c(Cc3cccc4ccccc34)c(Cl)c(=O)n21 (stereo not drawn) [Compound 197]	%	86

---

List of remaining activity at 25 µM values.
TEST SYSTEM: E. coli CsgA (Escherichia coli, UniProt P28307)
Construct: made in house; host or cells: E. coli NEB 3016 slyD::kan, pET11d
ASSAY TEXT: In vitro ThioflavinT assay of CsgA aggregation (CsgA ThT Assay)
Assay type: biochemical
STUDY CONDITIONS: read-out: CsgA ThT Assay (2 μM CsgA) % Control Bmax 25 μM, activity range, class symbol; CsgA 2 μM, white plates; compound 25 μM

COMPOUND	remaining activity at 25 µM
CCCN1CC(C(=O)O)n2c(c(-c3cccc(C(F)(F)F)c3)c(Cc3cccc4ccccc34)c(NC(=O)CC)c2=O)S1(=O)=O (stereo not shown)	> 60%
O=C(O)C1CN(Cc2cccnc2)c2c(-c3cccc(C(F)(F)F)c3)c(Cc3cccc4ccccc34)c(Cl)c(=O)n21 (stereo not shown)	> 60%
CC(C)(C)c1cccc(Cc2c(-c3cccc(C(F)(F)F)c3)c3n(c(=O)c2Cl)C(C(=O)O)CN3Cc2ccccc2)c1 (stereo not shown)	> 60%
O=C(O)[C@H]1CN(Cc2ccccc2)c2c(-c3cccc(C(F)(F)F)c3)c(Cc3cccc4ccccc34)c(Br)c(=O)n21 (single isomer, unassigned)	> 60%
O=C(O)C1CN(CC2CCCCC2)c2c(-c3cccc(C(F)(F)F)c3)c(Cc3cccc4ccccc34)c(Cl)c(=O)n21 (stereo not shown)	> 60%
O=C(O)C1CN(Cc2ccccc2)c2c(-c3cccc(C(F)(F)F)c3)c(Cc3cccc4ccccc34)c(Br)c(=O)n21 (stereo not shown)	31 to 60%
CC(C)NC(=O)c1c(Cc2cccc3ccccc23)c(-c2cccc(C(F)(F)F)c2)c2n(c1=O)C(C(=O)O)CN(C)S2(=O)=O (stereo not shown)	> 60%
O=C(O)C1CN(Cc2ccccc2)c2c(-c3cccc(C(F)(F)F)c3)c(C(F)(F)c3cccc4ccccc34)c(Br)c(=O)n21 (stereo not shown)	31 to 60%
CCCN1CC(C(=O)O)n2c(c(-c3cccc(C(F)(F)F)c3)c(Cc3cccc4ccccc34)c(OCc3ccccc3)c2=O)S1(=O)=O (stereo not shown)	> 60%
CC(C)CN1CC(C(=O)O)n2c1c(-c1cccc(C(F)(F)F)c1)c(Cc1cccc3ccccc13)c(Cl)c2=O (stereo not shown)	31 to 60%
CCCN1CC(C(=O)O)n2c(c(-c3cccc(C(F)(F)F)c3)c(Cc3cccc4ccccc34)c(NC(=O)C(C)C)c2=O)S1(=O)=O (stereo not shown)	> 60%
O=C(O)C1CN(Cc2ccccc2)c2c(-c3cccc(C(F)(F)F)c3)c(Cc3cncc4ccccc34)c(Cl)c(=O)n21 (stereo not shown)	> 60%
CC(C)CN1CC(C(=O)O)n2c(c(-c3cccc(C(F)(F)F)c3)c(Cc3cccc4ccccc34)c(NC3CCCC3)c2=O)S1(=O)=O (stereo not shown)	> 60%
